These measurements were taken from paper PMC6345774.

Biological target: T1, human MDM2 (residues 2–125) (human, UniProt Q00987 2-125)
T1 construct: MDM2 (murine double minute 2), human, N-terminal domain, residues 2-125; no tag is named; also called N-terminal domain of MDM2
T1 sequence (Q00987 2-125): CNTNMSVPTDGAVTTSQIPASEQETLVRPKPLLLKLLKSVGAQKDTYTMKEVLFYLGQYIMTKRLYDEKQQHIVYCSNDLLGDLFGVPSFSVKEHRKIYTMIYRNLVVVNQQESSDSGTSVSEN
Assay: ITC; p53 peptide in the syringe titrated into MDM2 in the cell; Auto-iTC200; 15 °C; 50 mM Tris-HCl pH 8.0, 250 mM NaCl, 0.5 mM TCEP
Details: both partners purified
quantity: dH (kJ/mol)
Give bare numbers, in kJ/mol.

Ac-EDFDDLWKLLPEN-NH2 [Ac-EdFdDLWKLLPEN-NH2 (P53-D18-D20)]    -41.6
Ac-EDFEDLWKLLPEN-NH2 [Ac-EdFeDLWKLLPEN-NH2 (P53-D18-E20)]    -41.4

Items follow; give dH for each.
1. Ac-EDFSDLWKLLPEN-NH2 [Ac-EdFSDLWKLLPEN-NH2 (P53-D18)]
2. Ac-EEFSDLWKLLPEN-NH2 [Ac-EeFSDLWKLLPEN-NH2 (P53-E18)]
3. Ac-EEFEDLWKLLPEN-NH2 [Ac-EeFeDLWKLLPEN-NH2 (P53-E18-E20)]
4. Ac-ETFDDLWKLLPEN-NH2 [Ac-ETFdDLWKLLPEN-NH2 (P53-D20)]
5. Ac-EEFDDLWKLLPEN-NH2 (also called double phosphomimetic mutant) [Ac-EeFdDLWKLLPEN-NH2 (P53-E18-D20)]

1. -76.9
2. -29.4
3. -38.2
4. -42.8
5. -36.8
